- tested_target: mutant MGL (Homo sapiens, UniProt Q99685, L169S/L176S)
- Sequence (Q99685 1-303 L169S/L176S): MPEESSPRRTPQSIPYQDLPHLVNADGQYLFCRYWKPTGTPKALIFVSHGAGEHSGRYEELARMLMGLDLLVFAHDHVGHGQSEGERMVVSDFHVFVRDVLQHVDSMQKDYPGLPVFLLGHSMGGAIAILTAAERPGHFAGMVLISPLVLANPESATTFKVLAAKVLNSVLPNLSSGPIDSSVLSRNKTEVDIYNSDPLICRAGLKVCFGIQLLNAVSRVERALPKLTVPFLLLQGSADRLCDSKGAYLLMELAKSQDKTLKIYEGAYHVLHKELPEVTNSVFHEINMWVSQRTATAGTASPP
- experimental_details: MGL ThermoFluor assay - mutant
- Type: binding
- setup_conditions: ThermoFluor, compound concentration measured by qNMR, read-out: MGL mutant ThermoFluor qKd (using qNMR conc.)
Note to self: Kd under 60 nM means satisfied, ties and anything higher get not satisfied.

{"columns": ["structure_as_smiles", "cat"],
 "data": [
  ["CCNC(=O)COc1ccc(C(=O)N2CC(N3CCN(C(=O)c4nccs4)CC3)C2)cc1", "not satisfied"],
  ["O=C(c1ccc2c(ccn2-c2ccc(Cl)cn2)c1)N1CC(N2CCN(C(=O)c3cscn3)CC2)C1", "satisfied"],
  ["O=C(c1sc2cc(C(F)(F)F)ccc2c1Cl)N1CC(N2CCN(C(=O)C(F)(F)F)CC2)C1", "not satisfied"],
  ["O=C(c1cnc2ccc(Cl)cc2c1)N1CC(N2CCN(C(=O)c3nccs3)CC2)C1", "not satisfied"],
  ["Cc1ccc(-n2ccc3cc(C(=O)N4CC(N5CCN(C(=O)C(F)(F)F)CC5)C4)ccc32)nc1", "not satisfied"],
  ["O=C(c1ccc(OCC(F)(F)F)cc1)N1CC(N2CCN(C(=O)c3nccs3)CC2)C1", "not satisfied"],
  ["O=C(c1cc2nc(C(F)(F)F)ccc2[nH]1)N1CC(N2CCN(C(=O)c3nccs3)CC2)C1", "not satisfied"],
  ["Cc1c(C(=O)N2CC(N3CCN(C(=O)c4nccs4)CC3)C2)[nH]c2ccc(F)cc12", "not satisfied"],
  ["Cc1nc2c(C)ccc(Cl)c2cc1C(=O)N1CC(N2CCN(C(=O)c3nccs3)CC2)C1", "not satisfied"],
  ["Cc1cc(Br)ccc1C(=O)N1CC(N2CCN(C(=O)c3nccs3)CC2)C1", "not satisfied"],
  ["O=C(c1ccc(-n2cc(-c3cc(F)cc(F)c3)cn2)cc1)N1CC(N2CCN(C(=O)c3nccs3)CC2)C1", "not satisfied"],
  ["COc1ccc(-n2ccc3cc(C(=O)N4CC(N5CCN(C(=O)c6nccs6)CC5)C4)ccc32)cn1", "satisfied"],
  ["O=C(c1cc2ccc(Br)cc2[nH]1)N1CC(N2CCN(C(=O)c3nccs3)CC2)C1", "not satisfied"],
  ["Cc1cn(-c2ccc(F)c(F)c2)c2ccc(C(=O)N3CCN(C4CN(C(=O)c5nccs5)C4)CC3)cc12", "satisfied"],
  ["O=C(c1cscn1)N1CCN(C2CN(C(=O)c3[nH]c4nc(C(F)(F)F)ccc4c3Br)C2)CC1", "not satisfied"],
  ["O=C(c1cc(-c2ccc(Cl)cc2)n(-c2ccc(Cl)c(Cl)c2)n1)N1CC(N2CCN(C(=O)c3nccs3)CC2)C1", "not satisfied"],
  ["CC(=O)NCCOc1ccc(C(=O)N2CC(N3CCN(C(=O)c4nccs4)CC3)C2)cc1", "not satisfied"],
  ["O=C(c1ccc2c(ccn2-c2ccccn2)c1)N1CC(N2CCN(C(=O)c3nccs3)CC2)C1", "satisfied"],
  ["O=C(c1cnc2cc(Cl)ccc2c1)N1CC(N2CCN(C(=O)c3nccs3)CC2)C1", "not satisfied"],
  ["O=C(c1nccs1)N1CC(N2CCN(C(=O)c3[nH]c4nc(C(F)(F)F)ccc4c3Br)CC2)C1", "not satisfied"],
  ["O=C(c1ccc2c(ccn2-c2ccc(C(F)(F)F)nc2)c1)N1CC(N2CCN(C(=O)c3nccs3)CC2)C1", "satisfied"],
  ["O=C(c1ccc(-n2nc3c(c2-c2cccc(C(F)(F)F)c2)CCC3)cc1)N1CC(N2CCN(C(=O)c3nccs3)CC2)C1", "satisfied"],
  ["O=C(COc1ccc(C(=O)N2CC(N3CCN(C(=O)c4nccs4)CC3)C2)cc1)Nc1cccc(C(F)(F)F)c1", "not satisfied"],
  ["Cc1nccc(-n2ccc3cc(C(=O)N4CC(N5CCN(C(=O)c6nccs6)CC5)C4)ccc32)n1", "satisfied"],
  ["O=C(c1ccc2c(ccn2-c2ccc(Cl)cn2)c1)N1CC(N2CCN(C(=O)c3nccs3)CC2)C1", "satisfied"],
  ["Cc1cc(C(=O)N2CC(N3CCN(C(=O)c4nccs4)CC3)C2)ccc1Br", "not satisfied"],
  ["O=C(c1ccc2c(ccn2-c2cccnc2)c1)N1CC(N2CCN(C(=O)c3nccs3)CC2)C1", "satisfied"],
  ["Cc1ccnc(-n2ccc3cc(C(=O)N4CC(N5CCN(C(=O)c6cscn6)CC5)C4)ccc32)c1", "not satisfied"],
  ["Cc1cn(-c2ccc(F)cc2)c2ccc(C(=O)N3CCN(C4CN(C(=O)c5nccs5)C4)CC3)cc12", "satisfied"],
  ["O=C(c1nccs1)N1CCN(C2CN(C(=O)c3[nH]c4nc(C(F)(F)F)ccc4c3Br)C2)CC1", "satisfied"],
  ["COc1ccc(-n2ccc3cc(C(=O)N4CC(N5CCN(C(=O)c6ccc[nH]6)CC5)C4)ccc32)cn1", "not satisfied"]
]}

Numbers sourced from patent US8362000B2.
